B1: GA-binding protein alpha chain, residues 172 to 250; numbered along this chain, Q06546 (parent)
chain: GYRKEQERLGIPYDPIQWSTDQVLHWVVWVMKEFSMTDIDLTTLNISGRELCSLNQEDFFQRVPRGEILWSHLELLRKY

variants of: B1; assay: abundance fitness (aPCA) (normalised: wild type 0, dead -1); higher = more abundant; growth selection in yeast, the domain comes from the species named; conditions: Homo sapiens
READOUT NAME: abundance fitness
Give the figure only, with no unit attached.

Past entries and their recorded results:
Can you look up the measured abundance fitness of "L41C" for me?
-0.056

// returns reported abundance fitness for input "T42F"
-0.215

Dear colleague, I am looking for the recorded abundance fitness of the following variant: "N45Q"
-0.086

Item under review: "E7R" . Reported abundance fitness?
-0.141

Record request: abundance fitness value, item "Q56M"
-0.107

Find the recorded abundance fitness belonging to "S19R" and report it.
-0.14

Field request: abundance fitness | item: "T43C"
0.013

Value lookup for abundance fitness; key = "Q6D"
-0.678

***
Quick one: abundance fitness for "L9I" ?
-0.081

Reported abundance fitness, variant "V63W" : ____
-0.042

Entry under review: "W29Q" . Reported abundance fitness?
-0.724

Item "P64K" has what recorded abundance fitness?
-0.159

Query: abundance fitness; subject: "W70N"
-0.766

Returns the measured abundance fitness for the input variant. Input: "R77C"
-0.255

Query (variant): "D38W" ; field requested: abundance fitness
-0.149

Look up abundance fitness: "Q56N"
-0.455

abundance fitness for "I16F" ?
-0.027

Would you mind telling me what abundance fitness value was observed for "K32Y" ?
-0.172
